Literature survey of IC50 (system: Tyrosine-protein kinase JAK3 (Homo sapiens, UniProt P52333)).
Test readout: IC50

[[record]]
molecule = "CCC(CC)n1cc(-c2nc(-c3cnn([C@H](C)[C@@H](O)CO)c3)cn3nccc23)cn1 (single isomer, unassigned)"
target_entity = "Tyrosine-protein kinase JAK3 (Homo sapiens, UniProt P52333)"
result = "1000 to 10000 nM"

[[record]]
molecule = "Cc1ccc(NC(=O)c2cc(NCCCN(C)C)cc(C(F)(F)F)c2)cc1-c1ccc2c(c1)[nH]c1ncncc12"
target_entity = "Tyrosine-protein kinase JAK3 (Homo sapiens, UniProt P52333)"
result = "≤ 500 nM"

[[record]]
molecule = "Cn1cc(-c2cc3nccn3c(-c3cnn(C(CCO)C4CC4)c3)n2)cn1 (centres unmarked)"
target_entity = "Tyrosine-protein kinase JAK3 (Homo sapiens, UniProt P52333)"
result = "> 1000 nM"

[[record]]
molecule = "CC1(C)[C@H](Nc2c(C(N)=O)cnn3cc(-c4ccccc4)cc23)CC[C@@]1(C)O"
target_entity = "Tyrosine-protein kinase JAK3 (Homo sapiens, UniProt P52333)"
result = "0.2 nM"

[[record]]
molecule = "C=CCCNc1nc(Nc2ccc3c(c2)NC[C@H](O)CO3)ncc1C(N)=O"
target_entity = "Tyrosine-protein kinase JAK3 (Homo sapiens, UniProt P52333)"
result = "< 10 nM"

[[record]]
molecule = "O=C(NCCC(F)(F)F)c1nn(Cc2ccncc2)c2c1CN(c1ncnc3[nH]ccc13)CC2"
target_entity = "Tyrosine-protein kinase JAK3 (Homo sapiens, UniProt P52333)"
result = "< 100 nM"

[[record]]
molecule = "N#CCC(=O)N1CCC[C@@H](Nc2c(-c3cccc(CO)n3)cnc3[nH]ccc23)C1"
target_entity = "Tyrosine-protein kinase JAK3 (Homo sapiens, UniProt P52333)"
result = "≤ 10 nM"

[[record]]
molecule = "CS(=O)(=O)CCn1cc(-c2cc3nccn3c(-c3ccn(C4(CC#N)CN(CC(F)(F)F)C4)n3)n2)cn1"
target_entity = "Tyrosine-protein kinase JAK3 (Homo sapiens, UniProt P52333)"
result = "> 1000 nM"

